Form field: Tm (one value per entry).
# test description: melting temperature; melt of duplexes
# condition notes: sodium 0.0675 M; strand 1 µM
Provide the reading as a plain figure in °C.

Please review the following examples before continuing.
substance: CGACGTGCAGGATGTGCTG+CAGCACATATGGCACGTCG ((((((((...((((((((+))))))))...))))))))
quantity: Tm
test result: 51.3
--
substance: CGACGTGCGTCATGTGCTG+CAGCACATCAAGCACGTCG ((((((((.(.((((((((+)))))))).).))))))))
quantity: Tm
test result: 52.6
--
substance: CGACGTGCTACATGTGCTG+CAGCACATGACGCACGTCG ((((((((..(((((((((+)))))))))..))))))))
quantity: Tm
test result: 50.8
--
substance: CGACGTGCACGATGTGCTG+CAGCACATTGGGCACGTCG ((((((((.(.((((((((+)))))))).).))))))))
quantity: Tm
test result: 56.4
--
substance: CGACGTGCGATATGTGCTG+CAGCACATAGAGCACGTCG ((((((((..(((((((((+)))))))))..))))))))
quantity: Tm
test result: 58.5

# substance CGACGTGCCATATGTGCTG+CAGCACATGTTGCACGTCG ((((((((.(.((((((((+)))))))).).)))))))) ; its Tm = 50.8

Form: substance = CGACGTGCGTGATGTGCTG+CAGCACATCGGGCACGTCG ((((((((..(((((((((+)))))))))..)))))))) ; Tm = 57.5

* * *

Listing of entries alongside the reported Tm.
# test description: melting temperature; UV melt of duplexes
# condition notes: sodium 0.12 M; strand 5 µM
Enter your answer as a number in °C; do not include the unit.

substance: AAAAAAAGCTTTTTTT+AAAAAAAGCTTTTTTT ((((((((((((((((+))))))))))))))))
quantity: Tm
test result: 44
//
substance: ACTGATTAGGATCCATATGTCA+TGACATATGGATCCTAATCAGT ((((((((((((((((((((((+))))))))))))))))))))))
quantity: Tm
test result: 58.3
//
substance: AAAAAAAAAGCTTTTTTTTT+AAAAAAAAAGCTTTTTTTTT ((((((((((((((((((((+))))))))))))))))))))
quantity: Tm
test result: 51
//
substance: ATATATATAGCTATATATAT+ATATATATAGCTATATATAT ((((((((((((((((((((+))))))))))))))))))))
quantity: Tm
test result: 44.8

Attention now shifts to the item below.
Given item ATATATAGCTATATAT+ATATATAGCTATATAT ((((((((((((((((+)))))))))))))))) , the value recorded as its Tm is 39.1

* * *

# test description: melting temperature; melt of duplexes
# condition notes: sodium 0.0675 M; strand 1 µM
// reported Tm per item
Give just the number in °C; leave the unit off.

Completed entries (count: 3):
substance: CGACGTGCATGATGTGCTG+CAGCACATGCAGCACGTCG ((((((((...((((((((+))))))))...))))))))
Tm [°C]: 50.4

substance: CGACGTGCGCGATGTGCTG+CAGCACATGGCGCACGTCG ((((((((((.((((((((+)))))))).))))))))))
Tm [°C]: 62

substance: CGACGTGCGGAATGTGCTG+CAGCACATATAGCACGTCG ((((((((...((((((((+))))))))...))))))))
Tm [°C]: 55

Quick note, Tm for CGACGTGCGCGATGTGCTG+CAGCACATCAAGCACGTCG ((((((((..(((((((((+)))))))))..)))))))) landed at 59

For reference, reported Tm for CGACGTGCACAATGTGCTG+CAGCACATATGGCACGTCG ((((((((...((((((((+))))))))...)))))))) stands at 47.7

Value of measured Tm for the entry CGACGTGCGTAATGTGCTG+CAGCACATGGAGCACGTCG ((((((((...((((((((+))))))))...)))))))) : 60.7

Record CGACGTGCAGGATGTGCTG+CAGCACATGTAGCACGTCG ((((((((...((((((((+))))))))...)))))))) . Reported Tm: 50.4

Entry source: the array DNA melting data of Ke et al.
